Cited source: ChEMBL document CHEMBL3352194

The compounds listed here are annotated with their inhibition at 10 µM.
- assay system: CYP2C9 (Homo sapiens, UniProt P11712)
- Sequence (P11712 whole entry): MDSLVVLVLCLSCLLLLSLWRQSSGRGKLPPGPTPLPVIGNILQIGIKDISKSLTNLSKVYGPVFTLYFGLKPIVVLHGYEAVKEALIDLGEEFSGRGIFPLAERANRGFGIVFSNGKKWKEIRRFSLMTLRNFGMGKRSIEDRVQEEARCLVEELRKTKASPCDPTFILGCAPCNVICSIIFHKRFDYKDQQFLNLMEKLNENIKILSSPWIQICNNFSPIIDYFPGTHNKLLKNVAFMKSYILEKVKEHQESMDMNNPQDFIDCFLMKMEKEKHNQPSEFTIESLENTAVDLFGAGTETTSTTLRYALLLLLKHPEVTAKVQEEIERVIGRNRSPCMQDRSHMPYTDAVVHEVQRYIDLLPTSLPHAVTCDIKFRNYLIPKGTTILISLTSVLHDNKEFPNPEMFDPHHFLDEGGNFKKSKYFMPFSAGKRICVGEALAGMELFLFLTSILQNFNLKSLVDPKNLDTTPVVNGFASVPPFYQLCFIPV
- assay notes: Inhibition of CYP2C9 (unknown origin) using diclofenac substrate at 10 uM
- Assay type: ADME
- condition info: probe diclofenac
property name: inhibition at 10 µM (%)

- compound: "O=S(=O)(Nc1ncc(Cl)s1)c1cc(F)c(OC[C@@H]2CNCC[C@H]2c2ccc(Cl)cc2)cc1F (relative stereo)"
  property name: "inhibition at 10 µM"
  result value: 100
- compound: "Cc1nsc(NS(=O)(=O)c2cc(F)c(OC[C@@H]3CNCC[C@H]3c3ccc(Cl)cc3)cc2F)n1 (relative stereo)"
  property name: "inhibition at 10 µM"
  result value: 100
- compound: "O=S(=O)(Nc1ncns1)c1cc(F)c(OC[C@@H]2CN(CC(F)F)CC[C@H]2c2ccc(Cl)cc2)cc1F (relative stereo)"
  property name: "inhibition at 10 µM"
  result value: 100
- compound: "Cc1cnc(NS(=O)(=O)c2cc(F)c(OC[C@@H]3CNCC[C@H]3c3ccc(Cl)cc3)cc2F)s1 (relative stereo)"
  property name: "inhibition at 10 µM"
  result value: 99
- compound: "Cc1cc(NS(=O)(=O)c2cc(F)c(OC[C@@H]3CNCC[C@H]3c3ccc(Cl)cc3)cc2F)no1 (relative stereo)"
  property name: "inhibition at 10 µM"
  result value: 80
- compound: "Cc1ccc([C@H]2CCNC[C@@H]2COc2cc(F)c(S(=O)(=O)Nc3ncns3)cc2F)cc1 (relative stereo)"
  property name: "inhibition at 10 µM"
  result value: 100
- compound: "O=S(=O)(Nc1ncns1)c1cc(F)c(OC[C@@H]2CNCC[C@H]2c2ccc(Cl)cc2)cc1F (racemic)"
  property name: "inhibition at 10 µM"
  result value: 100
- compound: "O=S(=O)(Nc1ncns1)c1cc(F)c(OC[C@H]2CNCC[C@@H]2c2ccc(F)c(F)c2)cc1F (relative stereo)"
  property name: "inhibition at 10 µM"
  result value: 96
- compound: "O=S(=O)(Nc1ncns1)c1cc(F)c(OC[C@H]2CNCC[C@@H]2c2ccc(Cl)c(F)c2)cc1F (relative stereo)"
  property name: "inhibition at 10 µM"
  result value: 100
- compound: "O=S(=O)(Nc1ncns1)c1cc(F)c(OC[C@@H]2CCNC[C@H]2c2ccc(F)cc2)cc1F (relative stereo)"
  property name: "inhibition at 10 µM"
  result value: 97
- compound: "O=S(=O)(Nc1cccnn1)c1cc(F)c(OC[C@@H]2CNCC[C@H]2c2ccc(Cl)cc2)cc1F (relative stereo)"
  property name: "inhibition at 10 µM"
  result value: 49
- compound: "O=S(=O)(Nc1ncns1)c1cc(F)c(OCC2(F)CNCCC2c2ccc(F)cc2)cc1F (stereo unspecified)"
  property name: "inhibition at 10 µM"
  result value: 99
- compound: "O=S(=O)(Nc1ccc(F)cn1)c1cc(F)c(OC[C@@H]2CNCC[C@H]2c2ccc(Cl)cc2)cc1F (relative stereo)"
  property name: "inhibition at 10 µM"
  result value: 99
- compound: "O=S(=O)(Nc1ncns1)c1cc(F)c(OC[C@@H]2CNC[C@H]2c2ccc(Cl)cc2)cc1F (relative stereo)"
  property name: "inhibition at 10 µM"
  result value: 100
- compound: "O=S(=O)(Nc1ccncn1)c1cc(F)c(OC[C@@H]2CNCC[C@H]2c2ccc(Cl)cc2)cc1F (relative stereo)"
  property name: "inhibition at 10 µM"
  result value: 91
- compound: "O=S(=O)(Nc1ncns1)c1cc(F)c(OC[C@@H]2CN(CC(F)(F)F)CC[C@H]2c2ccc(Cl)cc2)cc1F (relative stereo)"
  property name: "inhibition at 10 µM"
  result value: 100
- compound: "CN1CC[C@@H](c2ccc(Cl)cc2)[C@H](COc2cc(F)c(S(=O)(=O)Nc3ncns3)cc2F)C1 (relative stereo)"
  property name: "inhibition at 10 µM"
  result value: 97
- compound: "O=C1C[C@@H](c2ccc(F)cc2)[C@H](COc2cc(F)c(S(=O)(=O)Nc3ncns3)cc2F)CN1 (relative stereo)"
  property name: "inhibition at 10 µM"
  result value: 58
- compound: "O=S(=O)(Nc1ncns1)c1cc(F)c(OC[C@@H]2CNCC[C@H]2c2ccccc2)cc1F (relative stereo)"
  property name: "inhibition at 10 µM"
  result value: 81
- compound: "O=S(=O)(Nc1ncccn1)c1cc(F)c(OC[C@@H]2CNCC[C@H]2c2ccc(Cl)cc2)cc1F (relative stereo)"
  property name: "inhibition at 10 µM"
  result value: 60
- compound: "O=S(=O)(Nc1ncns1)c1cc(F)c(OC[C@@H]2CNCC[C@H]2c2ccc(F)cc2)cc1F (relative stereo)"
  property name: "inhibition at 10 µM"
  result value: 100
- compound: "O=S(=O)(Nc1nncs1)c1cc(F)c(OC[C@@H]2CNCC[C@H]2c2ccc(Cl)cc2)cc1F (relative stereo)"
  property name: "inhibition at 10 µM"
  result value: 99
- compound: "CC(C)(C)OC(=O)N1CC[C@@H](c2ccc(Cl)cc2)[C@H](COc2cc(F)c(S(=O)(=O)Nc3ncns3)cc2F)C1 (relative stereo)"
  property name: "inhibition at 10 µM"
  result value: 100
- compound: "O=S(=O)(Nc1ncc(F)cn1)c1cc(F)c(OC[C@@H]2CNCC[C@H]2c2ccc(Cl)cc2)cc1F (relative stereo)"
  property name: "inhibition at 10 µM"
  result value: 73
- compound: "O=S(=O)(Nc1ncns1)c1cc(F)c(OC[C@@H]2CN(CCF)CC[C@H]2c2ccc(Cl)cc2)cc1F"
  property name: "inhibition at 10 µM"
  result value: 97
- compound: "O=S(=O)(Nc1ncns1)c1cc(F)c(OC[C@@H]2CCCC[C@H]2c2ccc(Cl)cc2)cc1F (relative stereo)"
  property name: "inhibition at 10 µM"
  result value: 100
